measuredMetric: melting point

Reference set, count: 3
{"columns": ["compound", "measuredMetric", "measurement"],
 "data": [
  ["CC(C)(C)OC(=O)NC(COCc1ccccc1)C(=O)N1CCOCC1 (configuration not stated)", "melting point", "87 to 88 °C"],
  ["Nc1c(Br)cc(Br)n2nc(SCc3ccccc3)nc12", "melting point", "116 to 118 °C"],
  ["CSc1nncc(-c2ccco2)n1", "melting point", "88 to 90 °C"]
]}

Required: melting point, one value per compound below.
1. O=C(NCc1ccccc1F)[C@@H]1CCCN(c2cccc3c2C(=O)N(Cc2ccncc2)C3=O)C1
2. COC(=O)Cc1ccc(OCCNC(=O)C2Cc3ccccc3N2S(=O)(=O)c2ccc(-c3cc(C(F)(F)F)ccc3Cl)cc2)c(Cl)c1 (configuration not stated)

result:
1: 196 to 197 °C; 2: 68 to 76 °C

Provide melting point values for the following items, in order.
1. CCOC(=O)C1=C(C)NC(C#N)=C(C(=O)OCC)C1c1ccccc1C(=O)OC (configuration not stated)
2. Cc1cc(CC2(Cc3ccncc3)c3cccnc3-c3ncccc32)cc(C)n1
3. CSc1c2ccccc2c(C=O)c2ccccc12
4. Cc1nccn1N=Cc1ccccc1
5. Cc1ccc(C)c(-c2c(C)ccc(C)c2O)c1O
6. CN1C(C)(C)CC(O)C(O)C1(C)C (configuration not stated)
7. O=C1CCC(=O)N1CCCCSc1ccncc1
8. Cc1cn(C(C)C(=O)N(C)C)nc1-c1ccc(Cl)c(Cl)c1 (configuration not stated)

result:
1. 126 to 127 °C
2. > 240 °C
3. 98.5 to 99 °C
4. 122 to 124 °C
5. 110 to 113 °C
6. 78 °C
7. 80 to 81 °C
8. 109 to 110 °C

Give measured melting point for every item shown.
1. COC(=O)c1ccc(OC)cc1S(=O)(=O)Cl
2. CCNc1nc(C)c(C(=O)OCC)c(N2CCN(C)CC2)c1N
3. Cn1c2ccc(Cl)cc2c2c3ccccc3c(OCC3CC3)nc21
4. N#Cc1c(N2CCN(C(=O)c3cccs3)CC2)c2cscc2[nH]c1=O
5. Cc1c(-c2ccncc2)sc(-c2ccncc2)c1C=O

result:
69 to 72 °C
73 to 75 °C
141 to 142 °C
263 °C
139 to 140 °C

For every record below, what is its melting point?
1. O=C1c2ccccc2C(=O)N1CCS(=O)(=O)CCO
2. CN1CCCC1=Cc1ccc([N+](=O)[O-])cc1[N+](=O)[O-]

result:
1. 120 to 122 °C
2. 188 to 190 °C

Give melting point for all compounds that follow.
1. O=c1[nH]c2cccnc2c2nc(-c3ccccc3)cn12
2. O=C(O)COc1ccc2c(-c3ccccc3Cl)noc2c1Cl

result:
1: 329 to 330 °C; 2: 165 to 168 °C
